Each record here notes measured inhibition at 10 µM.
Test system: MOLT-4
Assay Procedure: NCI single-dose screen (SRB)
Assay type: cell-based
Stated Conditions: Homo sapiens; Leukemia MOLT-4; 10^−5 M; read-out: Growth inhibition percentage

>  <Entry Smiles>
COC(=O)C=C1SC(=Nc2cccnc2)N(NC(=O)c2cc3ccc2CCc2ccc(cc2)CC3)C1=O

>  <inhibition at 10 µM [%]>
21.9

$$$$
>  <Entry Smiles>
COC(=O)C=C1SC(=NNC(=O)c2cc3ccc2CCc2ccc(cc2)CC3)N(Cc2ccccc2)C1=O

>  <inhibition at 10 µM [%]>
98.9

$$$$
>  <Entry Smiles>
C=CCN1C(=O)C(=CC(=O)OC)SC1=NNC(=O)c1cc2ccc1CCc1ccc(cc1)CC2

>  <inhibition at 10 µM [%]>
64.5

$$$$
>  <Entry Smiles>
COC(=O)C=C1SC(=NNC(=O)c2cc3ccc2CCc2ccc(cc2)CC3)N(c2ccccc2)C1=O

>  <inhibition at 10 µM [%]>
97

$$$$
>  <Entry Smiles>
COC(=O)/C=C1/S/C(=N/NC(=O)c2cc3ccc2CCc2ccc(cc2)CC3)N(C2CC2)C1=O

>  <inhibition at 10 µM [%]>
55.6

$$$$
>  <Entry Smiles>
CCN1C(=O)C(=CC(=O)OC)SC1=NNC(=O)c1cc2ccc1CCc1ccc(cc1)CC2

>  <inhibition at 10 µM [%]>
62.9

$$$$

====

Tested on: MALME-3M
Assay Procedure: NCI single-dose screen (SRB)
Format: cell-based
Stated Conditions: Homo sapiens; Melanoma MALME-3M; 10^−5 M; read-out: Growth inhibition percentage
Experimental: The methodology of the NCI anticancer screening was described in detail elsewhere (http://www.dtp.nci.nih.gov). […] Tested compounds were added to the culture at a single concentration (10^−5 M) and the cultures were incubated for 48 h. End-point determinations were made with a protein binding dye, SRB. […] The percentage growth was evaluated spectrophotometrically versus controls not treated with test agents. […]
The label depends only on inhibition at 10 µM: y if it is at least 8%, n if it is smaller.

>  <Molecule>
COC(=O)C=C1SC(=NNC(=O)c2cc3ccc2CCc2ccc(cc2)CC3)N(Cc2ccccc2)C1=O [Compound 3b]

>  <Class Name>
y

$$$$
>  <Molecule>
COC(=O)C=C1SC(=NNC(=O)c2cc3ccc2CCc2ccc(cc2)CC3)N(c2ccccc2)C1=O [Compound 3a]

>  <Class Name>
y

$$$$
>  <Molecule>
COC(=O)C=C1SC(=Nc2cccnc2)N(NC(=O)c2cc3ccc2CCc2ccc(cc2)CC3)C1=O [Compound 3c]

>  <Class Name>
n

$$$$
>  <Molecule>
C=CCN1C(=O)C(=CC(=O)OC)SC1=NNC(=O)c1cc2ccc1CCc1ccc(cc1)CC2 [Compound 3d]

>  <Class Name>
n

$$$$
>  <Molecule>
COC(=O)/C=C1/S/C(=N/NC(=O)c2cc3ccc2CCc2ccc(cc2)CC3)N(C2CC2)C1=O [Compound 3f]

>  <Class Name>
y

$$$$

====

Each record here notes measured inhibition at 10 µM.
Test system: T-47D
Assay Procedure: NCI single-dose screen (SRB)
Type: cell-based
Stated Conditions: Homo sapiens, T47D; Breast Cancer T-47D; 10^−5 M; read-out: Growth inhibition percentage
Measure Name: inhibition at 10 µM (%)

>  <Entry Smiles>
COC(=O)/C=C1/S/C(=N/NC(=O)c2cc3ccc2CCc2ccc(cc2)CC3)N(C2CC2)C1=O

>  <Assay Result>
23

$$$$
>  <Entry Smiles>
COC(=O)C=C1SC(=NNC(=O)c2cc3ccc2CCc2ccc(cc2)CC3)N(Cc2ccccc2)C1=O

>  <Assay Result>
106

$$$$
>  <Entry Smiles>
CCN1C(=O)C(=CC(=O)OC)SC1=NNC(=O)c1cc2ccc1CCc1ccc(cc1)CC2

>  <Assay Result>
5.77

$$$$
>  <Entry Smiles>
COC(=O)C=C1SC(=NNC(=O)c2cc3ccc2CCc2ccc(cc2)CC3)N(c2ccccc2)C1=O

>  <Assay Result>
138

$$$$
>  <Entry Smiles>
COC(=O)C=C1SC(=Nc2cccnc2)N(NC(=O)c2cc3ccc2CCc2ccc(cc2)CC3)C1=O

>  <Assay Result>
31.1

$$$$
>  <Entry Smiles>
C=CCN1C(=O)C(=CC(=O)OC)SC1=NNC(=O)c1cc2ccc1CCc1ccc(cc1)CC2

>  <Assay Result>
25

$$$$

====

Test system: HCT-116
Assay Procedure: NCI single-dose screen (SRB)
Assay type: cell-based
Stated Conditions: Homo sapiens; Colon Cancer HCT-116; 10^−5 M; read-out: Growth inhibition percentage
The label depends only on inhibition at 10 µM: Criterion met if it is at least 50%, Criterion not met if it is smaller.

>  <Compound>
COC(=O)C=C1SC(=Nc2cccnc2)N(NC(=O)c2cc3ccc2CCc2ccc(cc2)CC3)C1=O [Compound 3c]

>  <System Under Test>
HCT-116

>  <Class Name>
Criterion not met

$$$$
>  <Compound>
COC(=O)/C=C1/S/C(=N/NC(=O)c2cc3ccc2CCc2ccc(cc2)CC3)N(C2CC2)C1=O [Compound 3f]

>  <System Under Test>
HCT-116

>  <Class Name>
Criterion not met

$$$$
>  <Compound>
COC(=O)C=C1SC(=NNC(=O)c2cc3ccc2CCc2ccc(cc2)CC3)N(c2ccccc2)C1=O [Compound 3a]

>  <System Under Test>
HCT-116

>  <Class Name>
Criterion met

$$$$
>  <Compound>
C=CCN1C(=O)C(=CC(=O)OC)SC1=NNC(=O)c1cc2ccc1CCc1ccc(cc1)CC2 [Compound 3d]

>  <System Under Test>
HCT-116

>  <Class Name>
Criterion not met

$$$$

====

Each record here notes measured inhibition at 10 µM.
Test system: UACC-257
Assay Procedure: NCI single-dose screen (SRB)
Type: cell-based
Stated Conditions: Homo sapiens; Melanoma UACC-257; 10^−5 M; read-out: Growth inhibition percentage

>  <Entry Smiles>
C=CCN1C(=O)C(=CC(=O)OC)SC1=NNC(=O)c1cc2ccc1CCc1ccc(cc1)CC2

>  <System Under Test>
UACC-257

>  <Unit Spec>
%

>  <inhibition at 10 µM>
8.89

$$$$
>  <Entry Smiles>
COC(=O)C=C1SC(=NNC(=O)c2cc3ccc2CCc2ccc(cc2)CC3)N(c2ccccc2)C1=O

>  <System Under Test>
UACC-257

>  <Unit Spec>
%

>  <inhibition at 10 µM>
30.8

$$$$
>  <Entry Smiles>
CCN1C(=O)C(=CC(=O)OC)SC1=NNC(=O)c1cc2ccc1CCc1ccc(cc1)CC2

>  <System Under Test>
UACC-257

>  <Unit Spec>
%

>  <inhibition at 10 µM>
7.26

$$$$
>  <Entry Smiles>
COC(=O)C=C1SC(=NNC(=O)c2cc3ccc2CCc2ccc(cc2)CC3)N(Cc2ccccc2)C1=O

>  <System Under Test>
UACC-257

>  <Unit Spec>
%

>  <inhibition at 10 µM>
19

$$$$
>  <Entry Smiles>
COC(=O)C=C1SC(=Nc2cccnc2)N(NC(=O)c2cc3ccc2CCc2ccc(cc2)CC3)C1=O

>  <System Under Test>
UACC-257

>  <Unit Spec>
%

>  <inhibition at 10 µM>
0.83

$$$$
>  <Entry Smiles>
COC(=O)/C=C1/S/C(=N/NC(=O)c2cc3ccc2CCc2ccc(cc2)CC3)N(C2CC2)C1=O

>  <System Under Test>
UACC-257

>  <Unit Spec>
%

>  <inhibition at 10 µM>
16.3

$$$$

====

Test system: NCI-H522
Assay Procedure: NCI single-dose screen (SRB)
Type: cell-based
Stated Conditions: Homo sapiens; Non-Small-Cell Lung Cancer NCI-H522; 10^−5 M; read-out: Growth inhibition percentage

>  <Entry Smiles>
CCN1C(=O)C(=CC(=O)OC)SC1=NNC(=O)c1cc2ccc1CCc1ccc(cc1)CC2

>  <inhibition at 10 µM, %>
40.3

$$$$
>  <Entry Smiles>
C=CCN1C(=O)C(=CC(=O)OC)SC1=NNC(=O)c1cc2ccc1CCc1ccc(cc1)CC2

>  <inhibition at 10 µM, %>
39.2

$$$$
>  <Entry Smiles>
COC(=O)/C=C1/S/C(=N/NC(=O)c2cc3ccc2CCc2ccc(cc2)CC3)N(C2CC2)C1=O

>  <inhibition at 10 µM, %>
30

$$$$
>  <Entry Smiles>
COC(=O)C=C1SC(=NNC(=O)c2cc3ccc2CCc2ccc(cc2)CC3)N(c2ccccc2)C1=O

>  <inhibition at 10 µM, %>
58.5

$$$$
>  <Entry Smiles>
COC(=O)C=C1SC(=NNC(=O)c2cc3ccc2CCc2ccc(cc2)CC3)N(Cc2ccccc2)C1=O

>  <inhibition at 10 µM, %>
84.1

$$$$
>  <Entry Smiles>
COC(=O)C=C1SC(=Nc2cccnc2)N(NC(=O)c2cc3ccc2CCc2ccc(cc2)CC3)C1=O

>  <inhibition at 10 µM, %>
17.7

$$$$
